TARGET: PD-L1 (Homo sapiens (Human))
Sequence (Q9NZQ7 19-238): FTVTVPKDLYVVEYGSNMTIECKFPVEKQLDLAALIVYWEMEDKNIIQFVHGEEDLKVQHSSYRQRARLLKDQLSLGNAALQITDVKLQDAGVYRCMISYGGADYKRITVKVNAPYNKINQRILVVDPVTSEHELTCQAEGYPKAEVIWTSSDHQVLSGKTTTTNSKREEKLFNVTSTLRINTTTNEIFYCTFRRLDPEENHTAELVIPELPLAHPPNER
Sequence (Q9NZQ7 19-238): as above
ASSAY NOTES: PD-L1/PD-L1 dimerization biochemical protein-protein interaction assay (ALPHA)
Assay type: binding
MEASUREMENT CONTEXT: 0.5 nM His tagged PD-L1 and 0.5 nM FLAG tagged PD-L1, Table 4B, read-out: AC50 PDL1 Dimer 1 nM
MEASURED METRIC: AC50 (nM)
Answer with a number only, understood to be in nM.

1. COc1nc(-c2cccc(-c3cccc4c3CC[C@@H]4Oc3nc(OC4CC4)c(CNC4(C(=O)O)CC4)cc3Cl)c2Cl)ccc1CNC[C@@H]1CCC(=O)N1 = 24.4

Entry `COc1nc(-c2cccc(-c3cccc4c3CC[C@@H]4Oc3nc(OC)c(CN4CC[C@@](C)(C(=O)O)C4)cc3C(F)(F)F)c2Cl)ccc1CNC[C@H]1C[C@](C)(O)C1` ; AC50 = 23.5

Entry `COc1nc(-c2cccc(-c3cccc4c3CC[C@@H]4Oc3nc(OC)c(CNCC(=O)O)cc3C(F)(F)F)c2Cl)ccc1CNC[C@H]1C[C@](C)(O)C1` ; AC50 = 7.77

Entry `COc1cc(-c2cccc(-c3cccc4c3CC[C@@H]4Oc3nc(OC)c(CN4CC(C(=O)O)C4)cc3Cl)c2Cl)ccc1CNC[C@@H]1CCC(=O)N1` ; AC50 = 12.5

Entry `COc1nc(-c2cccc(-c3cccc4c3CC[C@@H]4Oc3nc(OC)c(CN(C)CC(=O)O)cc3C(F)(F)F)c2Cl)ccc1CN[C@H]1C[C@](C)(O)C1` ; AC50 = 23.7

---

TARGET: UniProtKB Q9NZQ7
ASSAY NOTES: PD-L1/PD-L1 dimerization biochemical protein-protein interaction assay (ALPHA)
Assay type: binding
MEASUREMENT CONTEXT: 0.5 nM His tagged PD-L1 and 0.5 nM FLAG tagged PD-L1, Table 4B, read-out: AC50 PDL1 Dimer 1 nM
Each entry falls in a class defined on AC50; the bands are lower bin (below 20 nM), middle bin (20 nM to below 40 nM), upper bin (40 nM or more)

1. COc1cc(O[C@H]2CCc3c(-c4cccc(-c5ccc(CNC[C@@H]6CCC(=O)N6)c(OC)n5)c4Cl)cccc32)c(C(F)(F)F)cc1CN1CCC[C@@]1(C)C(=O)O [B-223] = lower bin
2. COc1nc(-c2cccc(-c3cccc4c3CC[C@@H]4Oc3nc(OC)c(CN4CC(C)(O)C4)cc3Cl)c2Cl)ccc1CNC[C@@H]1CCC(=O)N1 [B-102] = upper bin
3. COc1nc(-c2cccc(-c3cccc4c3CC[C@@H]4Oc3nc(OC)c(CN4CC5CC4(C(=O)O)C5)cc3C(F)(F)F)c2Cl)ccc1CNC[C@@H]1CCC(=O)N1 [B-145] = lower bin

Request: For the record COc1nc(-c2cccc(-c3cccc4c3CC[C@@H]4Oc3nc(OC)c(CN4CC[C@H](C)[C@H]4C(=O)O)cc3C(F)(F)F)c2Cl)ccc1CNC[C@@H]1CCC(=O)N1 [B-7] , report the class its AC50 corresponds to.
Result: lower bin

Request: For the record COc1nc(-c2cccc(-c3cccc4c3CC[C@@H]4Oc3nc(OC)c(CN4C[C@H]5[C@@H]([C@H]4C(=O)O)C5(C)C)cc3Cl)c2Cl)ccc1CNC[C@@H]1CCC(=O)N1 [B-182] , report the class its AC50 corresponds to.
Result: middle bin

Request: For the record CCOc1nc(O[C@H]2CCc3c(-c4cccc(-c5ccc(CNC[C@@H]6CCC(=O)N6)c(OC)n5)c4Cl)cccc32)c(Cl)cc1CN1CC2(C(=O)O)CCC1CC2 [B-46] , report the class its AC50 corresponds to.
Result: lower bin

Request: For the record COc1nc(-c2cccc(-c3cccc4c3CC[C@@H]4Oc3nc(OC)c(CNC4(C(=O)O)CC5CCC4C5)cc3Cl)c2Cl)ccc1CNC[C@@H]1CCC(=O)N1 (stereo partly shown) [B-139] , report the class its AC50 corresponds to.
Result: lower bin

Request: For the record COc1nc(O[C@H]2CCc3c(-c4cccc(-c5ccc(CNC[C@@H]6CCC(=O)N6)c(OCC#N)n5)c4Cl)cccc32)c(Cl)cc1CN1CC[C@@H](C(=O)O)C1 [B-19] , report the class its AC50 corresponds to.
Result: lower bin

Request: For the record COc1nc(-c2cccc(-c3cccc4c3CC[C@@H]4Oc3nc(OCc4cncc(C#N)c4)c(CN4CC[C@@H](C(=O)O)C4)cc3Cl)c2Cl)ccc1CNC[C@@H]1CCC(=O)N1 [B-66] , report the class its AC50 corresponds to.
Result: middle bin

Request: For the record COc1nc(-c2cccc(-c3cccc4c3CC[C@@H]4Oc3nc(OC)c(CN4CC5(C(=O)O)CCC4CC5)cc3Cl)c2Cl)ccc1CN[C@H]1CCCC[C@H]1O [B-50] , report the class its AC50 corresponds to.
Result: middle bin

Request: For the record COc1nc(-c2cccc(-c3cccc4c3CC[C@@H]4Oc3nc(OC)c(CNCC(N)=O)cc3C(F)(F)F)c2Cl)ccc1CNC[C@@H]1CCC(=O)N1 [B-266] , report the class its AC50 corresponds to.
Result: middle bin

Request: For the record COc1nc(-c2cccc(-c3cccc4c3CC[C@@H]4Oc3nc(OC)c(CN4CC[C@@H](C(=O)NS(=O)(=O)C(F)F)C4)cc3Cl)c2Cl)ccc1CNC[C@@H]1CCC(=O)N1 [B-111] , report the class its AC50 corresponds to.
Result: upper bin
